Reference for the values: paper PMC10165273

- target-entity: MRGPRX4 + RAMP2 (Homo sapiens)
- Construct: expressed in transfected cells; host or cells: HEK293T
- Sequence (Q96LA9 whole entry): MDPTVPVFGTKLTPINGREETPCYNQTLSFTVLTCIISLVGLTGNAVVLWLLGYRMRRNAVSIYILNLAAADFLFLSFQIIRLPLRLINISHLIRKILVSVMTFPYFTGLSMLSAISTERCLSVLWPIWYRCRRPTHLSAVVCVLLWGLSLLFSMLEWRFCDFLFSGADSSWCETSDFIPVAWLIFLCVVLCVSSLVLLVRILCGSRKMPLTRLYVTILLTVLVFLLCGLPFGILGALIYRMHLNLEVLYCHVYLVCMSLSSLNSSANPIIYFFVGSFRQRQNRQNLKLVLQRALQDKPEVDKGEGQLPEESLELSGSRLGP
- experiment-notes: IP1 accumulation, MRGPRX4 coexpressed with RAMP2
- Format: cell-based
- protocol-conditions: Tet-On MRGPRX4:RAMP2 Ratio 1:0.5 (Fig. S5E); read-out: IP1 EC50
measured-quantity: EC50 (µM)
Answer format: numeric, µM implied, no suffix.

Entry under review: CC(C)[C@H]1CC[C@H](C(=O)N[C@H](Cc2ccccc2)C(=O)O)CC1 [Nateglinide] . Reported EC50?
8.76

====

- target-entity: MRGPRX4 (Homo sapiens)
- Construct: expressed in transfected cells; host or cells: HEK293T
- Sequence (Q96LA9 whole entry): as above
- experiment-notes: IP1 accumulation HTRF assay, MRGPRX4
- Format: cell-based
- protocol-conditions: Tet-On MRGPRX4, over 1pg/cell Normalized, Dox 1100 ng/mL (Fig. S5C); read-out: IP1 EC50
- Method: HEK293T cells were transfected with 1 pg/cell of MRGPRX4 DNA, and the amount of DNA was kept constant at 2 pg/cell with pcDNA3.1(+) empty vector, unless otherwise specified. Twenty four hours after transfection, IP1 assay was performed as previously described ([51]). […] Time-resolved fluorescence signals were read on the BioTek Synergy NEO-TRF Hybrid multi-mode reader (BioTek Instruments). […]
measured-quantity: pEC50
Note on units: pEC50 is unitless, being -log10 of a concentration expressed in mol/L.

Entry under review: CC(C)[C@H]1CC[C@H](C(=O)N[C@H](Cc2ccccc2)C(=O)O)CC1 [Nateglinide] . Reported pEC50?
4.97
